# TESTED_SYSTEM: human recombinant CTSC (Homo sapiens (Human))
# Sequence (P53634 25-134): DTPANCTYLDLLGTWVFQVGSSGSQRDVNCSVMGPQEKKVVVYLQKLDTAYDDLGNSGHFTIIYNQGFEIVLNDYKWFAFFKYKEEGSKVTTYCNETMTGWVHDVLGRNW
# Sequence (P53634 231-394): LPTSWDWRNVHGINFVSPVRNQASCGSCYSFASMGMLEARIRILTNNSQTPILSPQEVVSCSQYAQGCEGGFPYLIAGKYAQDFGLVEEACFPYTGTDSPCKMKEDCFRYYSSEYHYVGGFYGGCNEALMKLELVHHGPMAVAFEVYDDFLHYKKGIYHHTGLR
# Sequence (P53634 395-463): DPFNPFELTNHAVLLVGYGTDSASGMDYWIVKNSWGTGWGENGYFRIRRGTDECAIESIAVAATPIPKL
# PROTOCOL_SUMMARY: CTSC inhibition assay (in vitro), fluorescent substrate GF-AFC
# Format: biochemical
# MEASUREMENT_SETUP: 30 μmol/L GF-AFC, pH 5.0, 25° C.
REPORTED_METRIC: IC50 (nM)
One number for each entry, in nM.

Please state, for each entry, its recorded IC50.
1. O=C([C@@H]1C[C@@H](O)C2(CCC2)CN1)N1CCC(c2noc(C3CC(F)(F)C3)n2)(C(F)(F)F)CC1
2. O=C([C@@H]1CC[C@@]2(CCO2)CN1)N1CCC(c2nc(C3CCC(F)(F)CC3)cs2)(C(F)(F)F)CC1
3. CC(C)C1(c2noc(C3CC(F)(F)C3)n2)CCN(C(=O)[C@@H]2C[C@@H](O)C3(CCC3)CN2)CC1
4. O=C([C@@H]1CC[C@@]2(CCO2)CN1)N1CCC(c2noc(C3CC(F)(F)C3)n2)(C(F)(F)F)CC1

(A)
1. 1.52
2. 4.85
3. 1.08
4. 19.6
